Test: Serum binding determination by ultrafiltration and HPLC
Assay type: in vitro ADME
Settings: % of compound bound to serum as determined by HPLC; rat serum
Kindly state fraction unbound for each of the entries shown.

Worked examples follow.
N=C(N)NCCSCc1ncccc1SC1=C(C(=O)O)N2C(=O)[C@@H](NC(=O)/C(=N\O)c3nc(N)sc3Cl)[C@H]2SC1    0.24
NCCSCc1ncccc1SC1=C(C(=O)O)N2C(=O)[C@@H](NC(=O)/C(=N\O)c3nsc(N)n3)[C@H]2SC1    0.26
NCCSCc1ccncc1SC1=C(C(=O)O)N2C(=O)[C@@H](NC(=O)/C(=N\O)c3nc(N)sc3Cl)[C@H]2SC1    0.03

Request: For NCCSCc1ncccc1SC1=C(C(=O)O)N2C(=O)[C@@H](NC(=O)/C(=N\O)c3nc(N)sc3Cl)[C@H]2SC1 , what is its reported fraction unbound?
Response: 0.15

Recorded values, source patent EP1222194B1.
